measurement-target: Torsin-1A-interacting protein 2 (Homo sapiens) (UniProt Q8NFQ8)
Sequence (Q8NFQ8 whole entry, looked up): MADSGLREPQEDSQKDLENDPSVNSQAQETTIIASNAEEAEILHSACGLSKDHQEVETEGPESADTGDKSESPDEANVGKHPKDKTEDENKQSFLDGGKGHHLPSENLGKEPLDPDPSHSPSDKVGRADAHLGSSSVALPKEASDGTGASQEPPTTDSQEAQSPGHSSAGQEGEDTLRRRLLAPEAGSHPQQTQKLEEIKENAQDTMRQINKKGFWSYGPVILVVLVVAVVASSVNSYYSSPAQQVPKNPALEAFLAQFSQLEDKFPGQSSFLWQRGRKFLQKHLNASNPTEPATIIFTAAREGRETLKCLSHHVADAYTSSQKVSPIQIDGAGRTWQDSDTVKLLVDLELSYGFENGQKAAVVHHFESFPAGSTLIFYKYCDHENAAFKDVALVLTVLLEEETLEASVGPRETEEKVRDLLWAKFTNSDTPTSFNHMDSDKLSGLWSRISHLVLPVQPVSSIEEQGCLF
protocol-notes: LULL1 binders on small-molecule microarray, primary screen, cell lysate, human LULL1 lysate, 635/667 nm fluorescence (AID 1092);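 note: probe is lysate of COS7 cells overexpressing human LULL1; score merges per-feature 667 nm fluorescence with signal-to-noise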
assay-context: hLULL1 lysate binding, 635 nm fluorescence, higher = more signal
The entries below come with measured composite z-score values attached.
Keep it simple and answer with nothing but the number.

COC(=O)c1c(CC[C@@H](CO)NC(=O)N[C@H](Cn2cc(-c3cncn3C)nn2)C(C)C)oc(C(C)=O)c1C(=O)OC :: 1.47

Q: Need composite z-score, item C#CCCCON=C1C[C@@H](O)[C@@H](O)[C@@H]2[C@@H]3C(=O)N(Cc4ccc5c(c4)OCO5)C(=O)[C@@H]3CC[C@H]12
Result: 2.79

Q: Need composite z-score, item CC(=O)NCCCC[C@@H]1NC(=O)[C@@H]2C[C@H](C(=O)NCc3ccc(F)cc3)[C@H](c3cccc(OCCO)c3)N2C1=O
Result: 2.43

Q: Need composite z-score, item [N-]=[N+]=NCc1ccccc1C[C@]1(C(=O)N2CCCCC2)N=C(c2ccc(OCCCO)cc2)O[C@H]1c1ccccc1CN=[N+]=[N-]
Result: 3.35

Q: Need composite z-score, item CO[C@@H]1COC(=O)[C@H](COCc2ccccc2)NC(=O)CC=C[C@@H](C)[C@H](OC)COC(=O)[C@H](COCc2ccccc2)NC(=O)CC=C[C@H]1C
Result: -0.0267

Q: Need composite z-score, item CO[C@H]1COC(=O)[C@H](C)NC(=O)CC=C[C@@H](C)[C@H](NS(=O)(=O)c2ccc(C)cc2)COC(=O)[C@@H](OCc2ccccc2)C=C[C@@H]1C
Result: -0.569

Q: Need composite z-score, item C=C(COC)/C(=C/C[C@H](OC(C)=O)c1ccc(OCCO)cc1)c1cnc2ccccc2c1
Result: 1.05

Q: Need composite z-score, item O=C1c2ccccc2[C@](Cc2ccccc2I)(C(=O)NCC(F)(F)F)[C@H](c2ccc(CO)cc2)N1Cc1ccccc1C(F)(F)F
Result: 2.54

Q: Need composite z-score, item COc1cc2c(cc1OC)CN(C(=O)[C@H]1[C@@H]3C(=O)O[C@@H](c4ccccc4)[C@@H](c4ccccc4)N3[C@@H](c3ccc(O)cc3)[C@]13C(=O)Nc1ccc(C#CC4(O)CCCCCC4)cc13)CC2
Result: 3.75

Q: Need composite z-score, item CCCC=C(CCC)[C@@H](NC(=O)c1ccccc1)c1ccccc1
Result: 0.446

Q: Need composite z-score, item Cc1ccc(S(=O)(=O)c2cc3oc2CC[C@@H](CO)NC(=O)N(C)Cc2cn(nn2)C[C@H](Cc2ccccc2)NC3=O)cc1
Result: 1.66

###

protocol-notes: modulators of S6 phosphorylation in cells, primary screen, cell-based, A549, cytoblot, luminescence, serum-stimulated (AID 1158);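 note: serum-stimulated A549 lung adenocarcinoma cells; signal is phosphorylated S6 detected by cytoblot immunostaining with HRP secondary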
assay-context: A549 phospho-S6 cytoblot, 5 h, higher = more signal
property-name: z-score
Keep it simple and answer with nothing but the number.

COc1ccc([Si](C)(C)[C@@H]2[C@@H](CCO)O[C@]3(C(=O)N(Cc4ccccc4)c4ccccc43)[C@H]2C)cc1 :: 0.779
COCCOC(=O)N1C(=O)[C@@]2(c3cc(C#CCCO)ccc31)[C@H](c1ccc(O)cc1)N1[C@H](c3ccccc3)[C@H](c3ccccc3)OC(=O)[C@H]1[C@@H]2C(=O)Nc1nc2ccccc2s1 :: 0.897
NC(=O)[C@H]1[C@@H]2C(=O)O[C@@H](c3ccccc3)[C@@H](c3ccccc3)N2[C@@H](c2ccc(O)cc2)[C@]12C(=O)Nc1ccc(C#CCCO)cc12 :: -0.289

Q: Need z-score, item C=CCC(OC(C)=O)[C@@H]1[C@@H](N(Cc2cc3ccccc3o2)C(=O)Cc2ccc(F)cc2)c2cc(OCCCO)ccc2N1C(=O)c1ccc(-c2ccccc2)cc1 (stereo partly specified)
Result: 0.437

Q: Need z-score, item CCCC/C=C/[C@H]([C@@H](O)Cc1ccccc1)N(CC#Cc1ccccc1)Cc1ccccc1Br
Result: 0.108

Q: Need z-score, item COC(=O)C1=C(C)N(Cc2ccccc2)c2c(C(=O)OC)c(C(=O)OC)c(C(=O)OC)c(=O)n2[C@@H]1c1ccccc1
Result: 0.715

###

protocol-notes: binders of probe aFGF10 on microarray, primary screen, stem cell growth factor project, biochemical, small-molecule microarray, fluorescence 635/667 (AID 1071);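 note: score merges 667 nm spot intensity and signal to noise from triplicate slides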
assay-context: higher = more signal
property-name: composite z-score

# annotated cases, reported composite z-score shown
COc1ccc([C@H]2C[C@H]3C(Br)=C[C@]2(OC)C(=O)[C@]32CO2)cc1 :: 1.02
CCOC(=O)C1=CCC(c2cccc3ccccc23)N(S(=O)(=O)c2ccc(C)cc2)C1 (stereo not drawn) :: 0.323
Cc1ccc(S[C@]2(C(=O)NCCCN(C)C)CC(=O)N(C3CCCCC3)[C@@H]2c2ccc(CO)cc2I)cc1 :: -0.546
CO[C@H]1COC(=O)[C@@H](OCc2ccccc2)C=C[C@H](C)[C@@H](OC)COC(=O)[C@H](OCc2ccccc2)C=C[C@@H]1C :: -0.205
COCCOC(=O)N1C(=O)[C@@]2(c3cc(C#CC4=CCCCC4)ccc31)[C@H](C(=O)NC[C@H](O)c1ccccc1)[C@H]1C(=O)O[C@H](c3ccccc3)[C@H](c3ccccc3)N1[C@@H]2c1ccc(OCCO)cc1 :: 0.478

Q: Need composite z-score, item CCOC(=O)C1=C[C@@H](c2ccccc2)N(S(=O)(=O)c2ccc(C)cc2)[C@H]1c1ccc(F)cc1
Result: 0.493

Q: Need composite z-score, item O=C/C=C/c1ccc(/C=C/c2ccccc2)cc1
Result: -0.324

Q: Need composite z-score, item CN(C)CCCC[C@@H]1NC(=O)[C@@H]2C[C@H](C(=O)NCCCCCNC(=O)CS)[C@H](c3ccc(O)cc3)N2C1=O
Result: 0.429

###

Test system: XIP peptide (Xip251-270)
protocol-notes: small-molecule binders of XIP peptide, primary screen, biochemical, small-molecule microarray, fluorescence 635/667 nm, 0.5 µg/mL protein (AID 1183)
assay-context: small-molecule microarray binding, fluorescence 635 nm; higher = more signal
The entries below come with measured composite z-score values attached.
Keep it simple and answer with nothing but the number.

# annotated cases, reported composite z-score shown
CCOC(=O)C1=CC[C@@H](c2ccc(-c3ccc(OCc4ccccc4)cc3)c(OC)c2)N(S(=O)(=O)c2ccc(C)cc2)[C@H]1c1ccccc1 :: 0.6
Cc1ccc(S[C@]2(C(=O)NC(C)C)CC(=O)N(C3Cc4ccccc4C3)[C@@H]2c2ccc(CO)cc2)cc1 :: 0.882
O=C(NCc1ccccc1)c1ccc(Br)cc1[N+](=O)[O-] :: 0.0871
CO[C@@H]1COC(=O)[C@H](COCc2ccccc2)NC(=O)CC=C[C@@H](C)[C@H](OC)COC(=O)[C@H](COCc2ccccc2)NC(=O)CC=C[C@H]1C :: -0.713
COC(=O)[C@@]1(Cc2ccccc2N=[N+]=[N-])N=C(c2ccc(OCCCO)cc2)O[C@H]1c1ccccc1CN=[N+]=[N-] :: 0.82
CC(C)C[C@@H]1NC(=O)[C@H]2C[C@@H](C(=O)NCCCCCC[N+](C)(C)C)[C@@H](c3ccc(O)cc3)N2C1=O :: 0.608

Here is the next item to consider.
Q: Return composite z-score measured with XIP peptide (Xip251-270) given this molecule: C[N+](C)(C)CCCCNC(=O)[C@H]1C[C@H]2C(=O)NCC(=O)N2[C@H]1c1cccc(OCCO)c1
Result: 0.839

###

protocol-notes: S. cerevisiae RM11-1a growth modifiers, primary screen, strain RM11-1a, OD600, basal, 24 h (AID 1177);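 note: cultures grown under basal conditions with no added stressor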
assay-context: OD600, 24 h, higher = more signal, called active from +8 up or from −8 down
Note to self: class labels come from recorded z-score, ranges listed here: lower level = under -0.3, middle level = from -0.3 up to 0.6, upper level = 0.6 and over

Record excerpt, results attached:
COc1cc([C@@H]2N[C@H](C(=O)O)Cc3c2[nH]c2ccccc32)cc(OC)c1OC :: lower level
C=CC[C@]1(C(=O)N2CCCCC2)N=C(c2ccc(OCCCO)cc2)O[C@H]1c1ccccc1N=[N+]=[N-] :: upper level
C[C@@H]1NC(=O)[C@H](Cc2ccccc2)NC(=O)[C@@]23C(=O)N[C@@H](Cc4ccccc4)C2[C@H](C)[C@@]2(C)O[C@H]2C3/C=C/C/C=C\CNC1=O (some centres undefined) :: upper level
C=CCC(OC(C)=O)[C@@H]1[C@@H](N(Cc2cc3ccccc3o2)C(=O)c2ccc(C)cc2)c2cc(OCCCO)ccc2N1C(=O)c1ccc2ccccc2n1 (some centres undefined) :: middle level
N#Cc1ccc(NN2C(C(O)c3ccc(I)cc3)C=CC3C(=O)N(c4ccccc4)C(=O)C32)cc1 (centres undefined) :: upper level

Let us examine a further case.
Q: Please classify: CCN1C(C)=C(C(=O)OC)[C@@H](c2ccccc2)N2C(=O)[C@](O)(C(=O)OC)[C@@H](c3ccccc3)C(C(C)=O)=C12
Result: lower level

Recorded values, source PubChem BioAssay.
